Test system: HeLa
Assay: Cytotoxicity against human HeLa cells after 5 days by MTT assay
Format: functional, cell-based
Conditions: 120 h
Measured metric: pIC50
Numbers only, as −log10 of the molar value.

Field request: pIC50 | item: COc1ccc2c(c1)[nH]c1c(C)nccc12 [HARMINE]
5.10

---

Target: Dual specificity tyrosine-phosphorylation-regulated kinase 1A (Homo sapiens, UniProt Q13627)
Assay: Inhibition of recombinant full length human Dyrk1A expressed in Baculovirus expression system using KKISGRLSPIMTEQ as substrate in presence of ATP
Measured metric: pIC50
One number for each entry, as −log10 of the molar value.

Field request: pIC50 | item: O=C(Cc1ccc(F)cc1)Nc1cncc(-c2cc(-c3cccnc3)cs2)c1
7.84

---

Molecular target: Dual specificity tyrosine-phosphorylation-regulated kinase 1A (Homo sapiens)
Assay: Inhibition of Dyrk1A in human HeLa cells transfected with GFP-SF3b1-NT assessed as decrease in SF3B1 phosphorylation at Thr434 after 18 hrs by Western blot analysis
Format: cell-based
Measured metric: IC50 (nM)
Answers are plain numbers, in nM.

GET /values?readout=IC50&system=Dual specificity tyrosine-phosphorylation-regulated kinase 1A (Homo sapiens)&item= O=C(Cc1ccc(F)cc1)Nc1cncc(-c2cc(-c3cccnc3)cs2)c1
79

---

Target: Dual specificity tyrosine-phosphorylation-regulated kinase 1A (Homo sapiens, UniProt Q13627)
Test: Inhibition of recombinant human Dyrk1A expressed in Baculovirus expression system by Z'-LYTE assay
Measured metric: IC50 (nM)
Answers are plain numbers, in nM.

Field request: IC50 | item: O=C(Cc1ccc(F)cc1)Nc1cncc(-c2cc(-c3cccnc3)cs2)c1
14.3
